Below, each entry is listed alongside its reported EB05 VA.
RUN DESCRIPTION: FAERS disproportionality analysis
EXPERIMENTAL CONDITIONS: FAERS Nov 1997 to March 31, 2015; ventricular arrhythmia; EB05 > 2 = signal

Past entries and their recorded results:
# COMPOUND, EB05 VA
measured = [
    ("CC/C(=C(\\c1ccccc1)c1ccc(OCCN(C)C)cc1)c1ccccc1 [TAMOXIFEN]", 0.06),
    ("CCC(=O)C(CC(C)N(C)C)(c1ccccc1)c1ccccc1 (stereo not shown) [METHADONE]", 1.87),
    ("O=c1[nH]c2ccccc2n1C1CCN(CCCC(c2ccc(F)cc2)c2ccc(F)cc2)CC1 [PIMOZIDE]", 0.25),
    ("C=C[C@H]1C[N@@]2CC[C@H]1C[C@@H]2[C@@H](O)c1ccnc2ccc(OC)cc12 [QUINIDINE]", 2.768),
    ("CN1CCN(C2=Nc3cc(Cl)ccc3Nc3ccccc32)CC1 [CLOZAPINE]", 0.372),
    ("O=C(CCCN1CC=C(n2c(=O)[nH]c3ccccc32)CC1)c1ccc(F)cc1 [DROPERIDOL]", 2.899),
    ("COc1ccc(CCN(C)CCCC(C#N)(c2ccc(OC)c(OC)c2)C(C)C)cc1OC (stereo not shown)", 2.104),
    ("COCCc1ccc(OCC(O)CNC(C)C)cc1 (stereo not shown) [METOPROLOL]", 1.955),
]

Here is another compound to look at.
Task: So what's the measured EB05 VA for this one? CC(C)COCC(CN(Cc1ccccc1)c1ccccc1)N1CCCC1 (stereo not shown) [BEPRIDIL]
Result: 5.155
